- Protocol Notes: chemical genetic growth profiling, strain panel (AID 1159580);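 note: tested at 20 µM; growth read once vehicle control cultures reached saturation at 30 °C; 1 = growth at the plate median or of vehicle wells; lower values mean less growth of the strain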
- Cond: S. cerevisiae deletion strains, growth OD, locus YNL250W, strain rad50, active compounds read low
Among all 5,500 compounds or so, about 2,000 (36%) were called active. Another 18% or so got no clear call; they are omitted. Some of the results follow.
Give measured normalized growth for each item. Keep answers brief.
Give bare numbers.

Compound: NCCCNCCSP(=O)(O)O
Outcome Measure: normalized growth
Observed: 0.981

Compound: COC(=O)/C(C)=C\CC12OC(C)(C)C3CC(C=C4C(=O)c5c(OC)c6c(c(CC=C(C)C)c5OC431)OC(C)(CCC=C(C)C)C=C6)C2=O (stereo not given)
Outcome Measure: normalized growth
Observed: 0.985

Compound: O=c1cccc2n1CC1CC2CN2CCCC[C@@H]12 (stereo not given in full)
Outcome Measure: normalized growth
Observed: 0.967

Take each entry in turn and give its normalized growth.
1. C[C@]12CCC3c4ccc(OC(=O)c5ccccc5)cc4CCC3C1CCC2=O (stereo not given in full)
2. COc1cc(C)c2c(=O)cc(-c3ccccc3)oc2c1

[0.96, 0.953]
